Please go through the items and note down their z-score.
Assay: basal MM1S mitochondrial membrane potential changes, profiling panel, cell-based, JC-1 fluorescence, 24 h, 100 nL compound (AID 1170); note: test concentration not given here
Details: higher = more signal
One number for each entry.

Answered examples (2):
INSERT INTO assay_data (compound, value_measured) VALUES
  ('CCOC(=O)[C@H](Cc1ccccc1)NC(=O)CCC1CC(OC(=O)NCCc2ccc(F)cc2)CC2(CCCC(COC(=O)NCC3CCCCC3)O2)O1 (stereo partly drawn)', -1.29),
  ('O=c1n(Cc2cc3c(cc2Cl)OCO3)c(=O)n2n1CC[C@@H]1C(=NOCc3ccccc3)[C@H]3O[C@H]3[C@@H](O)[C@@H]12', 0.178);

Next up:
Lab book: z-score of CC(=O)OC[C@H]1OC(ON=CC[C@@H]2C=C[C@H](OC(C)=O)[C@@H](COC(C)=O)O2)[C@H](OC(C)=O)[C@@H](OC(C)=O)[C@@H]1OC(C)=O (stereo partly drawn) noted as 0.23
